# assay-system: Peptide 5: Biotin-…-[Tyr(PC)]-acid
# Sequence (peptide, as listed by the source): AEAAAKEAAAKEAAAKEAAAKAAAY
# assay-summary: scFv ELISA
Recorded OD450 values for a group of binders are listed next.

# binder, OD450 (OD450)
data = [
    ("PcOxP_DB03_D12 (scFv, V domains shown, scFv in periplasmic extract) VH: EVQLLESGGGLVQPGGSLRLSCAASGFTNSDFYMEWVRQAPGKGLEWVAASRNKANDYTTELADSVKGRFTISRDNSKNTLYLQMNSLRAEDTAVYYCARDYYGSSYWYFDVWGQGTLVTVSS VL: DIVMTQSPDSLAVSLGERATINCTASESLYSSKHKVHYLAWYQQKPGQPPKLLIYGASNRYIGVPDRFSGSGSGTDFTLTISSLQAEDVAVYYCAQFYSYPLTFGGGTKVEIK", 0.3),
    ("PcOxP_DB01_E09 (scFv, V domains shown, scFv in periplasmic extract) VH: EVQLLESGGGLVQPGGSLRLSCAASGNTFSDFYMEWVRQAPGKGLEWVAASRNKANDYTTEYADSVKGRFTISRDNSKNTLYLQMNSLRAEDTAVYYCARDYYGSSYWYFDVWGQGTLVTVSS VL: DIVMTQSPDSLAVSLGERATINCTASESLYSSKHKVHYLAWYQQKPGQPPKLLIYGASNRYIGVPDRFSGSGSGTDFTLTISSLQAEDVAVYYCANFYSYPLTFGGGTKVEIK", 1.26),
    ("PcOxP_DB02_B10 (scFv, V domains shown, scFv in periplasmic extract) VH: EVQLLESGGGLVQPGGSLRLSCAASGFTESDFYMEWVRQAPGKGLEWVAASRNKANDYTTEYADSVKGRFTISRDNSKNTLYLQMNSLRAEDTAVYYCARDYYGSSYWYFDVWGQGTLVTVSS VL: DIQMTQSPSSLSASVGDRVTITCTASESLYSSKHKVHYLAWYQQKPGKAPKLLIYGASNRYIGVPSRFSGSGSGTDFTLTISSLQPEDFATYYCAQFYVYPLTFGGGTKVEIK", 1.03),
    ("PcOxP_DB03_D07 (scFv, V domains shown, scFv in periplasmic extract) VH: EVQLLESGGGLVQPGGSLRLSCAASGFTFSDVYMEWVRQAPGKGLEWVAASRNKANDYTTEYADSVKGRFTISRDNSKNTLYLQMNSLRAEDTAVYYCARDYYGSSYWYFDVWGQGTLVTVSS VL: DIQMTQSPSSLSASVGDRVTITCTASESLYSSKHKVHYLAWYQQKPGKAPKLLIYGASNRYSGVPSRFSGSGSGTDFTLTISSLQPEDFATYYCAQFYKYPLTFGGGTKVEIK", 0.95),
    ("PcOxP_DB04_F03 (scFv, V domains shown, scFv in periplasmic extract) VH: EVQLLESGGGLVQPGGSLRLSCAASGFTASDFYMEWVRQAPGKGLEWVAASRWKANDYTTEYADSVKGRFTISRDNSKNTLYLQMNSLRAEDTAVYYCARDIYGSSYWYFDVWGQGTLVTVSS VL: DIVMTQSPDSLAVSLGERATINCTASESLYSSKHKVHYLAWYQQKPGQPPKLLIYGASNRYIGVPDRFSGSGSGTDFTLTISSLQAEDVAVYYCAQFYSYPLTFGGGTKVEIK", 0.87),
    ("PcOxP_DB02_H07 (scFv, V domains shown, scFv in periplasmic extract) VH: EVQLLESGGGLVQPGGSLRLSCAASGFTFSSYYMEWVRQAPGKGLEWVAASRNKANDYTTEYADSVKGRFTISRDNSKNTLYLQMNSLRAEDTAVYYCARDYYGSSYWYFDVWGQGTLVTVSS VL: DIVMTQSPDSLAVSLGERATINCTASESLYSSKHKVHYLAWYQQKPGQPPKLLIYGASNRYNGVPDRFSGSGSGTDFTLTISSLQAEDVAVYYCAQFYTYPLTFGGGTKVEIK", 0.88),
    ("PcOxP_DB01_C10 (scFv, V domains shown, scFv in periplasmic extract) VH: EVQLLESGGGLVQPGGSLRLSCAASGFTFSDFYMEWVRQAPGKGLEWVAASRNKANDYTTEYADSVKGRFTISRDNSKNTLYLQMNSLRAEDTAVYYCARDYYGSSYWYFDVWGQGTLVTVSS VL: DIVMTQSPDSLAVSLGERATINCTSSQSLLSSSHNKNYLAWYQQKPGQPPKLLIYGASNRYIGVPDRFSGSGSGTDFTLTISSLQAEDVAVYYCAQFYSYPLTFGGGTKVEIK", 0.53),
    ("PcOxP_DB04_E12 (scFv, V domains shown, scFv in periplasmic extract) VH: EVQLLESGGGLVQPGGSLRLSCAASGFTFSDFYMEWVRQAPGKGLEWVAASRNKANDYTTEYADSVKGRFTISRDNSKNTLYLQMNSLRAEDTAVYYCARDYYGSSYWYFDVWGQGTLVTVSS VL: DIVMTQSPDSLAVSLGERATINCTASESLYSSKHKVHYLAWYQQKPGQPPKLLIYGASNRVIGVPDRFSGSGSGTDFTLTISSLQAEDVAVYYCAQFYIYPLTFGGGTKVEIK", 1.39),
    ("PcOxP_DB01_E03 (scFv, V domains shown, scFv in periplasmic extract) VH: EVQLLESGGGLVQPGGSLRLSCAASGFGFSDFYMEWVRQAPGKGLEWVGASRNKHNDYTTEYADSVKGRFTISRDNSKNTLYLQMNSLRAEDTAVYYCARDYYGSSYWYFDVWGQGTLVTVSS VL: DIVMTQSPDSLAVSLGERATINCKSSESVYSSKHKKHYLAWYQQKPGQPPKLLIYGASNRYIGVPDRFSGSGSGTDFTLTISSLQAEDVAVYYCAQFYSYPLTFGGGTKVEIK", 1.54),
    ("PcOxP_DB04_F05 (scFv, V domains shown, scFv in periplasmic extract) VH: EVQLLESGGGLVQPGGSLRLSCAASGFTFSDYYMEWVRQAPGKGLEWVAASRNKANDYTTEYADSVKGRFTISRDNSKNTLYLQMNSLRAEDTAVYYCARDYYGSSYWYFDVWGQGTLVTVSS VL: DIVMTQSPDSLAVSLGERATINCTASESLYSSNHKVHYLAWYQQKPGQPPKLLIYGVSNRYIGVPDRFSGSGSGTDFTLTISSLQAEDVAVYYCAQFYSYPLTFGGGTKVEIK", 0.97),
]
